Below is a list of entries, each paired with its recorded RLU value.
- EXPERIMENTAL SYSTEM: human TAS2R1 (Homo sapiens, UniProt Q9NYW7)
- Construct: expressed in transfected cells; host or cells: HEK293T-Gα16gust44
- Sequence (Q9NYW7 whole entry): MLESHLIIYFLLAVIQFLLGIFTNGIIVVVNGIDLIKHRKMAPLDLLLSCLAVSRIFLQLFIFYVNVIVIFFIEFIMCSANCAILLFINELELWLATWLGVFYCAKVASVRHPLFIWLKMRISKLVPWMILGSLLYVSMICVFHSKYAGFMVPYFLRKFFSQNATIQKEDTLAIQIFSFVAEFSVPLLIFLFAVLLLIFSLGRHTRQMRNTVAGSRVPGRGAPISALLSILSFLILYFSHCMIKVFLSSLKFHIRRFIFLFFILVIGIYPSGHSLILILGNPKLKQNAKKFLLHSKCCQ
- TEST DESCRIPTION: Calcium imaging assay (FLIPR), HEK293T-Gα16gust44 cells transfected with human TAS2R1
- Type: cell-based
- CONDITION: Time 130.796 s
MEASUREMENT LABEL: RLU (RLU)

MOLECULE	EXPERIMENTAL SYSTEM	READING
C[C@H](CCC(=O)O)[C@H]1CC[C@H]2[C@@H]3[C@H](O)C[C@@H]4C[C@H](O)CC[C@]4(C)[C@H]3C[C@H](O)[C@]12C [Cholic Acid, cholic acid]	human TAS2R1 (Homo sapiens, UniProt Q9NYW7)	428.214
C[C@H](CCC(=O)O)[C@H]1CC[C@H]2[C@@H]3[C@@H](O)C[C@@H]4C[C@H](O)CC[C@]4(C)[C@H]3CC[C@]12C [Ursodeoxycholic Acid, ursodeoxycholic acid]	human TAS2R1 (Homo sapiens, UniProt Q9NYW7)	275.474
C[C@H](CCC(=O)O)[C@H]1CC[C@H]2[C@@H]3CC[C@@H]4C[C@H](O)CC[C@]4(C)[C@H]3CC[C@]12C [Lithocholic Acid, lithocholic acid]	human TAS2R1 (Homo sapiens, UniProt Q9NYW7)	811.797
C[C@H](CCC(=O)O)[C@H]1CC[C@H]2[C@@H]3[C@H](O)C[C@@H]4C[C@H](O)CC[C@]4(C)[C@H]3CC[C@]12C [Chenodeoxycholic Acid, chenodeoxycholic acid]	human TAS2R1 (Homo sapiens, UniProt Q9NYW7)	581.558

====

- EXPERIMENTAL SYSTEM: human TAS2R4 (Homo sapiens)
- Construct: expressed in transfected cells; host or cells: HEK293T-Gα16gust44
- Sequence (Q9NYW5 1-299): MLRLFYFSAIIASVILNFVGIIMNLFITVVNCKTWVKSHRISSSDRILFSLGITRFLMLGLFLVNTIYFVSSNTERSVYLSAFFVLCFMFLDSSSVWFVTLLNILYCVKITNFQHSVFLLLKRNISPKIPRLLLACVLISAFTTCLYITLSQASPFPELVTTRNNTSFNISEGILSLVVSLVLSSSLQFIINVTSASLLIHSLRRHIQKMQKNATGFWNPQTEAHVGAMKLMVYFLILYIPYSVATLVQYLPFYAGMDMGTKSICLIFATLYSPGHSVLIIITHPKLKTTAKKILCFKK
- TEST DESCRIPTION: Calcium imaging assay (FLIPR), HEK293T-Gα16gust44 cells transfected with human TAS2R4; further: test concentration or dose not given here
- Assay type: cell-based
- CONDITION: Time (s) 44.781 (TCA, TLCA: 44.782)
RLU, fluorescence trace: recorded values
MEASUREMENT LABEL: RLU, fluorescence trace (RLU)

>>> print(df.to_string())
                                 mol_smiles        measurement_label  reading
0  C[C@H](CCC(=O)O)[C@H]1CC[C@H]2[C@@H]3[C@H](O)C[C@@H]4C[C@H](O)CC[C@]4(C)[C@H]3C[C@H](O)[C@]12C  RLU, fluorescence trace    571.4
1  C[C@H](CCC(=O)O)[C@H]1CC[C@H]2[C@@H]3[C@@H](O)C[C@@H]4C[C@H](O)CC[C@]4(C)[C@H]3CC[C@]12C  RLU, fluorescence trace  380.127
2  C[C@H](CCC(=O)NCC(=O)O)[C@H]1CC[C@H]2[C@@H]3[C@H](O)C[C@@H]4C[C@H](O)CC[C@]4(C)[C@H]3C[C@H](O)[C@]12C  RLU, fluorescence trace  854.725

====

- EXPERIMENTAL SYSTEM: human TAS2R14 (Homo sapiens, UniProt Q9NYV8)
- Construct: expressed in transfected cells; host or cells: HEK293T-Gα16gust44
- Sequence (Q9NYV8 whole entry): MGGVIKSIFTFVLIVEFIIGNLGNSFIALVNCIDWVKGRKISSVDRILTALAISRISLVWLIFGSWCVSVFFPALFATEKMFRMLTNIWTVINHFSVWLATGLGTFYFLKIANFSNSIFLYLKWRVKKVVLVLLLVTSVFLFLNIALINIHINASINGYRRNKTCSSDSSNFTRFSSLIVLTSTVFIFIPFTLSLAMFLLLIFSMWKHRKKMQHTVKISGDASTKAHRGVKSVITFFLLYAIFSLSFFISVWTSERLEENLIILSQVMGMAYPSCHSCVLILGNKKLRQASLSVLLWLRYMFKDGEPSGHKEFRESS
- TEST DESCRIPTION: Calcium imaging assay (FLIPR), HEK293T-Gα16gust44 cells transfected with human TAS2R14
- Assay type: cell-based
- CONDITION: TAS2R14 trace; Time (s) 82.797 (Chenodeoxycholic Acid 82.781)
MEASUREMENT LABEL: RLU (RLU)

>>> print(df.to_string())
                                 mol_smiles  reading
0  C[C@H](CCC(=O)NCC(=O)O)[C@H]1CC[C@H]2[C@@H]3[C@H](O)C[C@@H]4C[C@H](O)CC[C@]4(C)[C@H]3C[C@H](O)[C@]12C  736.745
1  C[C@H](CCC(=O)NCCS(=O)(=O)O)[C@H]1CC[C@H]2[C@@H]3[C@H](O)C[C@@H]4C[C@H](O)CC[C@]4(C)[C@H]3C[C@H](O)[C@]12C  729.222
2  C[C@H](CCC(=O)O)[C@H]1CC[C@H]2[C@@H]3[C@H](O)C[C@@H]4C[C@H](O)CC[C@]4(C)[C@H]3C[C@H](O)[C@]12C  1051.68
3  C[C@H](CCC(=O)NCCS(=O)(=O)O)[C@H]1CC[C@H]2[C@@H]3CC[C@@H]4C[C@H](O)CC[C@]4(C)[C@H]3CC[C@]12C  307.412
4  C[C@H](CCC(=O)O)[C@H]1CC[C@H]2[C@@H]3[C@H](O)C[C@@H]4C[C@H](O)CC[C@]4(C)[C@H]3CC[C@]12C   653.18

====

- EXPERIMENTAL SYSTEM: human TAS2R1 (Homo sapiens)
- Construct: expressed in transfected cells; host or cells: HEK293T-Gα16gust44
- TEST DESCRIPTION: Calcium imaging assay (FLIPR), HEK293T-Gα16gust44 cells transfected with human TAS2R1
- Format: cell-based
- CONDITION: Time 134.796 s
- Description: This set of bile acids was chosen because of their commercial availability in high purities, their diversity within the class of bile acids and their previous detection and quantitation in human blood. Stock solutions were prepared in DMSO. […] Measured data were negative control corrected by subtracting the signal of the mock-transfected cells and exported to Microsoft Excel using the FLIPR software ScreenWorks 4.2. […]
MEASUREMENT LABEL: RLU (RLU)

>>> print(df.to_string())
                                 mol_smiles  reading
0  C[C@H](CCC(=O)O)[C@H]1CC[C@H]2[C@@H]3[C@H](O)C[C@@H]4C[C@H](O)CC[C@]4(C)[C@H]3C[C@H](O)[C@]12C  369.335
1  C[C@H](CCC(=O)O)[C@H]1CC[C@H]2[C@@H]3CC[C@@H]4C[C@H](O)CC[C@]4(C)[C@H]3CC[C@]12C  809.512
2  C[C@H](CCC(=O)O)[C@H]1CC[C@H]2[C@@H]3[C@H](O)C[C@@H]4C[C@H](O)CC[C@]4(C)[C@H]3CC[C@]12C  541.966
3  C[C@H](CCC(=O)O)[C@H]1CC[C@H]2[C@@H]3[C@@H](O)C[C@@H]4C[C@H](O)CC[C@]4(C)[C@H]3CC[C@]12C  253.899

====

- EXPERIMENTAL SYSTEM: mouse Tas2r108 (Mus musculus, UniProt Q9JKT3)
- Construct: expressed in transfected cells; host or cells: HEK293T-Gα16gust44
- Sequence (Q9JKT3 whole entry): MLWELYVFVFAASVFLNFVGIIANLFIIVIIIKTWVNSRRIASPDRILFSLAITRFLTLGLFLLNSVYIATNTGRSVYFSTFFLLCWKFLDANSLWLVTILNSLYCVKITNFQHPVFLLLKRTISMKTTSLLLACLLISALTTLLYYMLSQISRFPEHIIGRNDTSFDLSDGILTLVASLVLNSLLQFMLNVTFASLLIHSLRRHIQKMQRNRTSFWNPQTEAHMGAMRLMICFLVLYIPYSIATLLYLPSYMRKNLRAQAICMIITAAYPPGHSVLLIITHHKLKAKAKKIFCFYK
- TEST DESCRIPTION: Calcium imaging assay (FLIPR), HEK293T-Gα16gust44 cells transfected with mouse Tas2r108
- Type: cell-based
- CONDITION: Time 311.562 s
Each entry below carries its recorded RLU.
MEASUREMENT LABEL: RLU (RLU)

In [3]: df
Out[3]:
                                 mol_smiles  reading
0  C[C@H](CCC(=O)NCCS(=O)(=O)O)[C@H]1CC[C@H]2[C@@H]3[C@H](O)C[C@@H]4C[C@H](O)CC[C@]4(C)[C@H]3C[C@H](O)[C@]12C  254.495
1  C[C@H](CCC(=O)NCC(=O)O)[C@H]1CC[C@H]2[C@@H]3[C@H](O)C[C@@H]4C[C@H](O)CC[C@]4(C)[C@H]3C[C@H](O)[C@]12C  142.659
2  C[C@H](CCC(=O)O)[C@H]1CC[C@H]2[C@@H]3[C@H](O)C[C@@H]4C[C@H](O)CC[C@]4(C)[C@H]3C[C@H](O)[C@]12C  159.088
3  C[C@H](CCC(=O)O)[C@H]1CC[C@H]2[C@@H]3CC[C@@H]4C[C@H](O)CC[C@]4(C)[C@H]3C[C@H](O)[C@]12C  430.852

====

- EXPERIMENTAL SYSTEM: mouse Tas2r117 (Mus musculus)
- Construct: expressed in transfected cells; host or cells: HEK293T-Gα16gust44
- Sequence (Q7M715 1-330): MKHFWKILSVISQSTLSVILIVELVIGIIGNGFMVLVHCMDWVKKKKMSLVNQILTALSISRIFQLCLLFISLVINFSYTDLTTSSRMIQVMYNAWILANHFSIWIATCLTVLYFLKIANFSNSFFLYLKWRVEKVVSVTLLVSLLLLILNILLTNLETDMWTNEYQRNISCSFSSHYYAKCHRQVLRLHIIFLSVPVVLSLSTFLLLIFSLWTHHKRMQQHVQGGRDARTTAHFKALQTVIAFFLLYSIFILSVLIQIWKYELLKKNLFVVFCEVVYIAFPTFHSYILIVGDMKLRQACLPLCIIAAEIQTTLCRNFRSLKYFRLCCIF
- TEST DESCRIPTION: Calcium imaging assay (FLIPR), HEK293T-Gα16gust44 cells transfected with mouse Tas2r117
- Format: cell-based
pEC50: −log10 of the molar value.
MEASUREMENT LABEL: pEC50

COMPOUND	READING
C[C@H](CCC(=O)O)[C@H]1CC[C@H]2[C@@H]3[C@H](O)C[C@@H]4C[C@H](O)CC[C@]4(C)[C@H]3C[C@H](O)[C@]12C [Cholic Acid, cholic acid]	4.69
C[C@H](CCC(=O)NCCS(=O)(=O)O)[C@H]1CC[C@H]2[C@@H]3[C@H](O)C[C@@H]4C[C@H](O)CC[C@]4(C)[C@H]3C[C@H](O)[C@]12C [Taurocholic Acid, taurocholic acid]	4.43
